All values here come from patent EP1295874A2.

# System: Passaged HIV-1
# measurement description: Phenotypic susceptibility of in vitro passaged HIV-1 to the compound of Example 2B (MTT colorimetric assay)
# Format: cell-based
# setup conditions: Human immunodeficiency virus 1, read-out: The compound of Example 2B EC50 (µM), Virus P7 (selected at 0.15 µM, 65 days in culture)
recorded metric: EC50 (µM)
Report the value in µM with no unit label.

Q) Looking for the measured EC50 of Cc1cccc(C)c1OCC(=O)N[C@@H](Cc1ccccc1)[C@@H](O)C[C@H](Cc1ccccc1)NC(=O)[C@H](C(C)C)N1CCCNC1=O , can you help?
A) 0.201

---

# Test system: Ritonavir-Resistant HIV from Patients
# measurement description: microbe, parasite or virus in culture
# Assay type: cell-based
# setup conditions: Human immunodeficiency virus 1, Patient No. 410, Day 57, M36M/I, I54I/V, V82A
# pEC50 listing for each entry below
pEC50 here is simply -log10 of the concentration when that concentration is written in mol/L.

CC(C)c1nc(CN(C)C(=O)N[C@H](C(=O)N[C@@H](Cc2ccccc2)C[C@H](O)[C@H](Cc2ccccc2)NC(=O)OCc2cncs2)C(C)C)cs1 [Ritonavir] | 6.47

Proceed to the following item.
Q) So what's the measured pEC50 for this one? Cc1cccc(C)c1OCC(=O)N[C@@H](Cc1ccccc1)[C@@H](O)C[C@H](Cc1ccccc1)NC(=O)[C@H](C(C)C)N1CCCNC1=O [Example 2B]
A) 7.48

---

# Test system: HIVIIIB
# measurement description: Antiviral activity (anti-HIV activity) in MT4 cells, MTT readout
# Type: cell-based
# setup conditions: Human immunodeficiency virus 1, MT4, 120 h, read-out: IC50 (µM, 0% plasma)
With a cut-off of 0.05 µM, any IC50 strictly below it is called 1; any IC50 meeting it or above is called 0.

Cc1cccc(C)c1OCC(=O)N[C@@H](Cc1ccccc1)[C@@H](O)C[C@H](Cc1ccccc1)NC(=O)[C@H](C(C)C)N1CCNC(=O)C1=O [Example 29C] | 0

Q) Lab note: confirm whether the reported IC50 for this compound is below 0.05 µM, equality not counting. compound: Cc1cccc(C)c1OCC(=O)N[C@@H](Cc1ccccc1)[C@@H](O)C[C@H](Cc1ccccc1)NC(=O)[C@H](C(C)C)N1CCC(=O)NC1=O [Example 25E]
A) 1

Q) How about this compound: CC(C)[C@@H](C(=O)N[C@@H](Cc1ccccc1)C[C@H](O)[C@H](Cc1ccccc1)NC(=O)OCc1cncs1)N1CCNC1=O
A) 0

Q) Now consider CC(C)[C@@H](C(=O)N[C@@H](Cc1ccccc1)C[C@H](O)[C@H](Cc1ccccc1)NC(=O)O[C@H]1CO[C@H]2OCC[C@H]21)N1CCNC1=O .
A) 0

Q) How about Cc1cccc(C)c1OCC(=O)N[C@@H](Cc1ccccc1)[C@@H](O)C[C@H](Cc1ccccc1)NC(=O)[C@H](C(C)C)N1C(=O)CCC1=O [Example 18C] ?
A) 0

Q) Same again, this time with Cc1cccc(C)c1OCC(=O)N[C@@H](Cc1ccccc1)[C@@H](O)C[C@H](Cc1ccccc1)NC(=O)[C@H](C(C)C)N1CC=NNC1=O [Example 30B]
A) 1

Q) Same question for Cc1cccc(C)c1/C=C/C(=O)N[C@@H](Cc1ccccc1)[C@@H](O)C[C@H](Cc1ccccc1)NC(=O)[C@H](C(C)C)N1CCCNC1=O [Example 19E] please.
A) 0

---

# System: Ritonavir-Resistant Mutant HIV Clones
# measurement description: microbe, parasite or virus in culture
# Type: cell-based
# setup conditions: Human immunodeficiency virus 1, Virus Clone G48V; 50% Human Serum
Recorded EC50 for the following compounds
# number only, unit nM dropped from output

CC(C)c1nc(CN(C)C(=O)N[C@H](C(=O)N[C@@H](Cc2ccccc2)C[C@H](O)[C@H](Cc2ccccc2)NC(=O)OCc2cncs2)C(C)C)cs1 | 1710

Q) Give recorded EC50 with Ritonavir-Resistant Mutant HIV Clones for the following compound: Cc1cccc(C)c1OCC(=O)N[C@@H](Cc1ccccc1)[C@@H](O)C[C@H](Cc1ccccc1)NC(=O)[C@H](C(C)C)N1CCCNC1=O
A) 156

---

# Tested on: Ritonavir-Resistant HIV from Patients
# measurement description: microbe, parasite or virus in culture
# Assay type: cell-based
# setup conditions: Human immunodeficiency virus 1, 24 h, Patient No. 313, Day 1, baseline
recorded metric: pEC50
To interpret pEC50, take it as minus log10 of a concentration measured in moles per litre.

CC(C)c1nc(CN(C)C(=O)N[C@H](C(=O)N[C@@H](Cc2ccccc2)C[C@H](O)[C@H](Cc2ccccc2)NC(=O)OCc2cncs2)C(C)C)cs1 | 7.92

Q) Name the reported pEC50 value associated with the compound Cc1cccc(C)c1OCC(=O)N[C@@H](Cc1ccccc1)[C@@H](O)C[C@H](Cc1ccccc1)NC(=O)[C@H](C(C)C)N1CCCNC1=O
A) 8.40

---

# measurement description: 50% lethal concentration in uninfected MT4 cells (MTT)
# Format: cell-based
# setup conditions: human, read-out: LC50
recorded metric: CC50 at 120 h (µM)
Give the number; µM is assumed, so skip it.

Cc1cc(C)c(OCC(=O)N[C@@H](Cc2ccccc2)[C@@H](O)C[C@H](Cc2ccccc2)NC(=O)[C@H](C(C)C)N2CCNC2=O)c(C)c1 [Example 11B] | 18.2

Q) # input compound: Cc1cccc(C)c1OCC(=O)N[C@@H](Cc1ccccc1)[C@@H](O)C[C@H](NC(=O)[C@H](C(C)C)N1CCCNC1=O)C(C)C [Example 27D] ; wanted: its CC50 at 120 h
A) 56.2

---

# Tested on: Ritonavir-Resistant Mutant HIV Clones
# measurement description: microbe, parasite or virus in culture
# Assay type: cell-based
# setup conditions: Human immunodeficiency virus 1, Virus Clone V82A; 0% Human Serum
recorded metric: EC50 (nM)
Write the answer as a number in nM, unit excluded.

Q) For the compound CC(C)c1nc(CN(C)C(=O)N[C@H](C(=O)N[C@@H](Cc2ccccc2)C[C@H](O)[C@H](Cc2ccccc2)NC(=O)OCc2cncs2)C(C)C)cs1 , what EC50 is on record?
A) 144

Q) Similarly, Cc1cccc(C)c1OCC(=O)N[C@@H](Cc1ccccc1)[C@@H](O)C[C@H](Cc1ccccc1)NC(=O)[C@H](C(C)C)N1CCCNC1=O ?
A) 33

---

Each entry below lists one item and its recorded pEC50 value.
# System: Ritonavir-Resistant Mutant HIV Clones
# measurement description: microbe, parasite or virus in culture
# Format: cell-based
# setup conditions: Human immunodeficiency virus 1, Virus Clone V82S; 0% Human Serum
# log scale: pEC50 equals minus log10 of the concentration in mol/L

Cc1cccc(C)c1OCC(=O)N[C@@H](Cc1ccccc1)[C@@H](O)C[C@H](Cc1ccccc1)NC(=O)[C@H](C(C)C)N1CCCNC1=O | 7.59

Consider the record given below.
Q) # get_value(readout= pEC50, system= Ritonavir-Resistant Mutant HIV Clones) for CC(C)c1nc(CN(C)C(=O)N[C@H](C(=O)N[C@@H](Cc2ccccc2)C[C@H](O)[C@H](Cc2ccccc2)NC(=O)OCc2cncs2)C(C)C)cs1
A) 6.52

---

# Test system: Passaged HIV-1
# measurement description: Phenotypic susceptibility of in vitro passaged HIV-1 to the compound of Example 2B (MTT colorimetric assay)
# Type: cell-based
# setup conditions: Human immunodeficiency virus 1, read-out: The compound of Example 2B EC50 (µM), Virus P6 (selected at 0.12 µM, 58 days in culture)
recorded metric: EC50 (µM)
The answer is to be given in µM; state only the numeric part.

Q) Give the measured EC50 of Cc1cccc(C)c1OCC(=O)N[C@@H](Cc1ccccc1)[C@@H](O)C[C@H](Cc1ccccc1)NC(=O)[C@H](C(C)C)N1CCCNC1=O .
A) 0.149

---

Measured inhibition at 0.0005 µM accompanies every entry in the list below.
# target desc: HIV protease (Human immunodeficiency virus type 1 group M subtype B)
# Construct: HIV protease consists of two identical subunits, each of which has 99 amino acid residues
# measurement description: Fluorogenic Assay for Screening Inhibitors of HIV Protease
# Format: biochemical
# setup conditions: Inhibitor Concentration 0.5 nanomolar; read-out: Percent Inhibition
Expressed in %, but write only the number.

Consider the reported inhibition at 0.0005 µM for these molecules:
CC(C)(C)[C@@H](C(=O)N[C@@H](Cc1ccccc1)C[C@H](O)[C@H](Cc1ccccc1)NC(=O)OCc1cncs1)N1CCNC1=O | 67.1
CC(C)[C@@H](C(=O)N[C@@H](Cc1ccccc1)C[C@H](O)[C@H](Cc1ccccc1)NC(=O)O[C@@H]1CCS(=O)(=O)[C@@H]1C(C)C)N1CCCNC1=O [Example 22E] | 71.8
Cc1cccc(C)c1OCC(=O)N[C@@H](Cc1ccccc1)[C@@H](O)C[C@H](Cc1ccccc1)NC(=O)[C@H](C(C)C)N1CCCNC1=O | 93.2
Cc1cc(F)cc(C)c1OCC(=O)N[C@@H](Cc1ccccc1)[C@@H](O)C[C@H](Cc1ccccc1)NC(=O)[C@H](C(C)C)N1CCNC1=O [Example 12B] | 76.8
Cc1cccc(C)c1OCC(=O)N[C@@H](Cc1ccccc1)[C@@H](O)C[C@H](Cc1ccccc1)NC(=O)[C@H](C(C)C)N1CCCC1=O [Example 17C] | 87.2
Cc1cccc(C)c1OCC(=O)N[C@@H](Cc1ccccc1)[C@@H](O)C[C@H](Cc1ccccc1)NC(=O)[C@H](C(C)C)N1CCC(=O)NC1=O [Example 25E] | 100

Q) Missing value: inhibition at 0.0005 µM, HIV protease (Human immunodeficiency virus type 1 group M subtype B), entry Cc1cccc(C)c1OCC(=O)N[C@@H](Cc1ccccc1)[C@@H](O)C[C@H](NC(=O)[C@H](C(C)C)N1CCCNC1=O)C(C)C [Example 27D] . Fill in?
A) 92.9
